System: MDA-MB-468
Experiment: phospho-S6 immunofluorescence (DAPI-normalised), per-plate z-score; higher = higher phospho-S6 signal (less pathway suppression)
Conditions: co-treatment: GDC0941 450 nM; 24 h
Where a name gives a salt, the structure may show the parent alone.
Give phospho-S6 immunofluorescence (z-score) for every item shown.
Just the number, please, no unit after it.

Incoming: Please look up its phospho-S6 immunofluorescence (z-score): Clc1ccc2c(c1)N=C(N1CCNCC1)c1ccccc1N2 [N-Desmethylclozapine] (compound 10 µM)
Outgoing: -0.56

Incoming: # input compound: CC[C@@H](Nc1c(Nc2cccc(C(=O)N(C)C)c2O)c(=O)c1=O)c1ccc(C)o1 (compound 10 µM) ; wanted: its phospho-S6 immunofluorescence (z-score)
Outgoing: 0.29

Incoming: For Cc1nc(C(=O)N2CCC[C@H]2Cc2nnc(-c3ccccc3)o2)c(-c2ccccc2F)s1 (compound 10 µM) , what is its reported phospho-S6 immunofluorescence (z-score)?
Outgoing: 0.95

Incoming: Would you kindly share the measured phospho-S6 immunofluorescence (z-score) for Nc1ccc(/C=C/c2cccc(C(=O)O)n2)cc1 (compound 10 µM) ?
Outgoing: 0.9

Incoming: Recorded phospho-S6 immunofluorescence (z-score) for CCCN[C@@H]1CCc2nc(N)sc2C1 [Dexpramipexole (dihydrochloride)] (compound 10 µM) , please?
Outgoing: 1.16

Incoming: # query: phospho-S6 immunofluorescence (z-score) of entry N#Cc1cc(NC(=O)C(=O)O)c(Cl)c(NC(=O)C(=O)O)c1 [Lodoxamide] (compound 10 µM)
Outgoing: 0.92

Incoming: Need phospho-S6 immunofluorescence (z-score) of CC(C)NCC(O)c1ccc(NS(C)(=O)=O)cc1 (centres undefined) [Sotalol (hydrochloride)] (compound 10 µM) , thanks.
Outgoing: 1.31

Incoming: Any idea what phospho-S6 immunofluorescence (z-score) was measured for N[C@@H](COP(=O)(O)O)C(=O)O [O-Phospho-L-serine] (compound 10 µM) ?
Outgoing: 0.23

Incoming: Name the recorded phospho-S6 immunofluorescence (z-score) for CN(C)CCC(c1ccc(Cl)cc1)c1ccccn1 (centres undefined) [Chlorpheniramine (maleate)] (compound 10 µM) .
Outgoing: -5.85

Incoming: Suppose we examine the compound CC(CN1c2ccccc2Sc2ccccc21)N(C)C (centres undefined) [Promethazine (hydrochloride)] (compound 10 µM) ; what phospho-S6 immunofluorescence (z-score) value has been reported?
Outgoing: -1.86

Incoming: # phospho-S6 immunofluorescence (z-score) lookup, item CC(COc1ccccc1)N(CCCl)Cc1ccccc1 (centres undefined) [Phenoxybenzamine (hydrochloride)] (compound 10 µM)
Outgoing: 0.33

Incoming: May I ask what phospho-S6 immunofluorescence (z-score) has been recorded for NCCc1c[nH]cn1 [Histamine (phosphate)] (compound 10 µM) ?
Outgoing: -0.41

Incoming: Item under review: O=C(O)CCCN1CCC(O[C@@H](c2ccc(Cl)cc2)c2ccccn2)CC1 [Bepotastine (Beslilate)] (compound 10 µM) . Reported phospho-S6 immunofluorescence (z-score)?
Outgoing: -0.72

Incoming: Look up phospho-S6 immunofluorescence (z-score) for this compound: CCC1(c2c[nH]cn2)Cc2ccccc2C1 [Atipamezole] (compound 10 µM)
Outgoing: 0.08

Incoming: Quick check: phospho-S6 immunofluorescence (z-score) of CCc1cnc(N2CCC(c3nc(COc4ccc(-n5cnnn5)cc4)cs3)CC2)nc1 (compound 10 µM) ?
Outgoing: -3.23

Incoming: I have this compound here, C[C@@H](OC[C@@]1(c2ccccc2)CC[C@]2(CCC(=O)N2)CN1)c1cc(C(F)(F)F)cc(C(F)(F)F)c1 [Rolapitant] (compound 10 µM) , and I need its recorded phospho-S6 immunofluorescence (z-score).
Outgoing: -4.35

Incoming: I'd like to know its phospho-S6 immunofluorescence (z-score). The compound in question is N=C(N)NCCC[C@H](NC(=O)[C@H](Cc1ccccc1)NC(=O)[C@@H]1CCCN1C(=O)[C@H](CO)NC(=O)[C@H](Cc1ccccc1)NC(=O)CNC(=O)[C@@H]1CCCN1C(=O)[C@@H]1CCCN1C(=O)[C@@H](N)CCCNC(=N)N)C(=O)O [Bradykinin] (compound 10 µM)
Outgoing: -0.14

Incoming: Please report the recorded phospho-S6 immunofluorescence (z-score) for COc1cc2c(NC3CCN(C(C)C)CC3)nc(N3CCC(F)(F)CC3)nc2cc1OCCCN1CCCC1 (compound 10 µM) .
Outgoing: 1.81

Incoming: Give the measured phospho-S6 immunofluorescence (z-score) of CCCCCN(CCCOC)C(=O)C(CCC(=O)O)NC(=O)c1ccc(Cl)c(Cl)c1 (centres undefined) [Loxiglumide] (compound 10 µM) .
Outgoing: 0.5

Incoming: Data request, read-out phospho-S6 immunofluorescence (z-score), for COc1nc(C)nc(Cl)c1NC1=NCCN1 [Moxonidine] (compound 10 µM)
Outgoing: 0.49

Incoming: What value of phospho-S6 immunofluorescence (z-score) has been reported for the following compound? CC(C)COc1ccc(CNC(=O)N(Cc2ccc(F)cc2)C2CCN(C)CC2)cc1 [Pimavanserin tartrate] (compound 10 µM)
Outgoing: -3.99

Incoming: Would you kindly share the measured phospho-S6 immunofluorescence (z-score) for Nc1nc(N)nc(-c2cc(Cl)ccc2Cl)n1 [Irsogladine] (compound 10 µM) ?
Outgoing: -0.7

Incoming: Sample O=C(Nc1ccc(Cl)cc1CN1C(=O)c2ccccc2C1=O)c1ccccc1O (compound 10 µM) — what was its phospho-S6 immunofluorescence (z-score)?
Outgoing: -1.83

Incoming: Report phospho-S6 immunofluorescence (z-score) for CCN(CCCc1ccccc1)CCCc1ccccc1 [Alverine (citrate)] (compound 10 µM) please.
Outgoing: -0.52

Incoming: What value of phospho-S6 immunofluorescence (z-score) has been reported for the following compound? COC(=O)[C@@H]1[C@H]2C[C@H]3c4[nH]c5ccccc5c4CCN3C[C@@H]2CC[C@@H]1O [Yohimbine (Hydrochloride)] (compound 10 µM)
Outgoing: 0.62

Incoming: Sample CCCNS(=O)(=O)Nc1ncnc(OCCOc2ncc(Br)cn2)c1-c1ccc(Br)cc1 [Macitentan] (compound 10 µM) — what was its phospho-S6 immunofluorescence (z-score)?
Outgoing: 0.32

Incoming: What value of phospho-S6 immunofluorescence (z-score) has been recorded for this entry: O=C(c1ccc(F)cc1)C1CCN(CCn2c(=O)[nH]c3ccccc3c2=O)CC1 [Ketanserin] (compound 10 µM)
Outgoing: -0.64

Incoming: Report phospho-S6 immunofluorescence (z-score) for C[C@H](NC(=O)C(C)(C)Oc1ccc(C(F)(F)F)cn1)[C@@H](Cc1ccc(Cl)cc1)c1cccc(C#N)c1 [Taranabant] (compound 10 µM) please.
Outgoing: -4.19

Incoming: Query (compound): COc1cc2c(cc1OC)CC(=O)N(CCCN(C)C[C@H]1Cc3cc(OC)c(OC)cc31)CC2 [Ivabradine (hydrochloride)] (compound 10 µM) ; field requested: phospho-S6 immunofluorescence (z-score)
Outgoing: -0.44
